Recorded EC50 for the following compounds
tested system: F508delCFTR (Homo sapiens, UniProt P13569, DEL508-508)
Construct: expressed in transfected cells; host or cells: CFBE41o- (human lung derived epithelial cell line), doxycycline-inducible expression
Sequence (P13569 with tags, fused parts or gaps DEL508-508): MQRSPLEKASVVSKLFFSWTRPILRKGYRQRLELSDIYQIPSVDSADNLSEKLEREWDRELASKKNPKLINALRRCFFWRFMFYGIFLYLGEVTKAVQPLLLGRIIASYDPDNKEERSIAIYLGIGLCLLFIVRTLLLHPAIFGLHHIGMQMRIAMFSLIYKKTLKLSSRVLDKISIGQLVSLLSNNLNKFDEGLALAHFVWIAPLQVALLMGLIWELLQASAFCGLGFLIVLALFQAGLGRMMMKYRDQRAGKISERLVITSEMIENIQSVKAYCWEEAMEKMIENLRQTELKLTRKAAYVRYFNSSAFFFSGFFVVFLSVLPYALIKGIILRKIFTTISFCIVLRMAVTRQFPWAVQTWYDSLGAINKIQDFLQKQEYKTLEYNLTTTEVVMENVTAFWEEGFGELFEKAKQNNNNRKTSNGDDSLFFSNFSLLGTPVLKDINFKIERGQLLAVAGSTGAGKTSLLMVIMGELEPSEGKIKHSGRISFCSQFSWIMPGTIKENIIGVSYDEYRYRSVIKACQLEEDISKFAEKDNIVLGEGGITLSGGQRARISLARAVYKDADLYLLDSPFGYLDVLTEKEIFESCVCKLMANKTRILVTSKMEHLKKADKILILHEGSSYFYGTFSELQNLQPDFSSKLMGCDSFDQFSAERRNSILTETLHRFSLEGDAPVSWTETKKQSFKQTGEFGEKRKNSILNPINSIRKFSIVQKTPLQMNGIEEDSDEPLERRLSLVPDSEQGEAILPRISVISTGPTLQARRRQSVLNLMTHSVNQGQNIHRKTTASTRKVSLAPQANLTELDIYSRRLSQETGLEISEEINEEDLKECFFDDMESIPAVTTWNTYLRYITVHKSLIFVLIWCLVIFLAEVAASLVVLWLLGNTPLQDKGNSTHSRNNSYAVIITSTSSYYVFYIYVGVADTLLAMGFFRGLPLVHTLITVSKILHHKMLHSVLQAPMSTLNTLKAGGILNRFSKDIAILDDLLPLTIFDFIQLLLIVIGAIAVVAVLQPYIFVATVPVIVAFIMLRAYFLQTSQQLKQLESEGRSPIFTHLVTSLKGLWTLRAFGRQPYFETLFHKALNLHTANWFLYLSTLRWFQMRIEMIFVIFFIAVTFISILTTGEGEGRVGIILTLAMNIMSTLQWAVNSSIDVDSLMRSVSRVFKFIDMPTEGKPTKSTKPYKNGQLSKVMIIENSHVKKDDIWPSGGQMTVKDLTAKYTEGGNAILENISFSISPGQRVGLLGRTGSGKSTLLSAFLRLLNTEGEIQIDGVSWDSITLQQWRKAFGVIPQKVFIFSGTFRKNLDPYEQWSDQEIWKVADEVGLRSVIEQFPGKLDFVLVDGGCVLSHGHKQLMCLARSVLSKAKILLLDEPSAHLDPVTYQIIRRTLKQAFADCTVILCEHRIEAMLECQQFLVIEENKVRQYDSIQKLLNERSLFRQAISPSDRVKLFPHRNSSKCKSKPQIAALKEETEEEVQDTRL
test details: Cell Surface Expression-Horse Radish Peroxidase (CSE-HRP) assay
Type: cell-based
condition notes: CFBE41o-F508delCFTR-HRP cells; with co-corrector (2 μM of 3-[(2R,4R)-4-({[1-(2,2-difluoro-1,3-benzodioxol-5-yl)cyclopropyl]carbonyl}amino)-7-methoxy-3,4-dihydro-2H-chromen-2-yl]benzoic acid); read-out: EC50 (with co-corrector)

Use these answered entries as a reference point.
> print(dat)
                                 smiles.str          reported
1  COc1ncc(C(F)(F)F)cc1CO[C@H]1[C@H](C(C)(C)C)[C@@H](C(=O)O)N(C(=O)[C@H]2CCOC2)[C@H]1c1ccccc1C(C)C  1000 to 10000 nM
2  COc1cnc(C2CCC2)cc1CO[C@H]1[C@H](C(C)(C)C)[C@@H](C(=O)O)N(C(=O)OC(C)C)[C@H]1c1ccccc1  1000 to 10000 nM

Ask | Reported EC50, compound `COc1ccc(C(F)(F)F)cc1CO[C@H]1[C@H](C(C)(C)C)[C@@H](C(=O)O)N(C(=O)C2CCCCC2)[C@H]1c1ccccc1` : ____
Reply | < 1000 nM

Ask | Reported EC50, compound `COc1ncc(C2CCC2)cc1CO[C@H]1[C@H](C(C)(C)C)[C@@H](C(=O)O)N(C(=O)C2CCOCC2)[C@H]1c1cccnc1OC(C)C` : ____
Reply | 1000 to 10000 nM

Ask | Reported EC50, compound `COc1ncc(C(C)(C)C)cc1CO[C@H]1[C@H](C(C)(C)C)[C@@H](C(=O)O)N(C(=O)[C@@H]2CCC[C@@H](OC)C2)[C@H]1c1ccccc1` : ____
Reply | < 1000 nM

Ask | Reported EC50, compound `COc1ccc(C(C)(C)C)nc1CO[C@H]1[C@H](C(C)(C)C)[C@@H](C(=O)O)N(C(=O)[C@@H]2CCCCO2)[C@H]1c1ccccc1C` : ____
Reply | < 1000 nM
